- systemName: T1, biotinylated Aβ1-40 peptide (biotinylated (N-biotinylated in Example 7))
- T1 construct: captured on streptavidin (SA) chip; also called Biotinylated Aβ peptide 1-40; Aβ1-40 on SA chip
- T1 sequence (peptide, as listed by the source): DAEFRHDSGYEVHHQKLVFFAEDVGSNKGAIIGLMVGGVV
- testMethodNotes: SPR, Fab over Aβ1-40 on SA chip; kon may be assumed = 9TL (footnote 2)
Entries and their measured kon follow.
Provide the reading as a plain figure in M⁻¹ s⁻¹.

>>> measurement("9TL variant M12 Fab (Fab, V domains shown, Fab; human IgG2 CH1 and kappa CL) VH: QVQLVQSGAEVKKPGASVKVSCKASGYYTEAYYIHWVRQAPGQGLEWMGRIDPATGNTKYAPRLQDRVTMTRDTSTSTVYMELSSLRSEDTAVYYCASLYSLPVYWGQGTTVTVSS VL: DVVMTQSPLSLPVTLGQPASISCKSSQSLLYSDAKTYLNWFQQRPGQSPRRLIYQISRLDPGVPDRFSGSGSGTDFTLKISRVEAEDVGVYYCLQTTHYPVLFGQGTRLEIKR")
318000
>>> measurement("9TL variant M14 Fab (Fab, V domains shown, Fab; human IgG2 CH1 and kappa CL) VH: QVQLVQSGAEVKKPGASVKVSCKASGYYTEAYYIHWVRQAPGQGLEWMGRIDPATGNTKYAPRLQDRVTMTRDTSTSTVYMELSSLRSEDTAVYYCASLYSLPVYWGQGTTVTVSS VL: DVVMTQSPLSLPVTLGQPASISCKSSQSLLYSDAKTYLNWFQQRPGQSPRRLIYQISRLDPGVPDRFSGSGSGTDFTLKISRVEAEDVGVYYCLQGTLYPVLFGQGTRLEIKR")
318000

query: What value of kon has been reported for the following binder? 9TL variant M20 Fab (Fab, V domains shown, Fab; human IgG2 CH1 and kappa CL) VH: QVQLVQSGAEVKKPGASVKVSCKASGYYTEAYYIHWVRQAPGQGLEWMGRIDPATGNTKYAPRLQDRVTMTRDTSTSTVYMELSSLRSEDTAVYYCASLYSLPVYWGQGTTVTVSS VL: DVVMTQSPLSLPVTLGQPASISCKSSQSLLYSDAKTYLNWFQQRPGQSPRRLIYQISRLDPGVPDRFSGSGSGTDFTLKISRVEAEDVGVYYCLQGTHSPVLFGQGTRLEIKR
result: 318000
